assayProtocol: total protein half-life in vivo (active degradation + dilution); higher = more stable protein
testParameters: wild type E. coli NCM3722; growth: C-lim chemostat; doubling time 6 h
readoutLabel: total protein half-life in vivo (h)
Give bare numbers, in h.

// known answers, use as guide
# sequenceRecord, readoutLabel, unitAnnotation, assayResult
rows = [
    ("MNTDTFMCSSDEKQTRSPLSLYSEYQRMEIEFRAPHIMPTSHWHGQVEVNVPFDGDVEYLINNEKVNINQGHITLFWACTPHQLTDTGTCQSMAIFNLPMHLFLSWPLDKDLINHVTHGMVIKSLATQQLSPFEVRRWQQELNSPNEQIRQLAIDEIGLMLKRFSLSGWEPILVNKTSRTHKNSVSRHAQFYVSQMLGFIAENYDQALTINDVAEHVKLNANYAMGIFQRVMQLTMKQYITAMRINHVRALLSDTDKSILDIALTAGFRSSSRFYSTFGKYVGMSPQQYRKLSQQRRQTFPG [P0ACH8]", "total protein half-life in vivo", "h", 3.43),
    ("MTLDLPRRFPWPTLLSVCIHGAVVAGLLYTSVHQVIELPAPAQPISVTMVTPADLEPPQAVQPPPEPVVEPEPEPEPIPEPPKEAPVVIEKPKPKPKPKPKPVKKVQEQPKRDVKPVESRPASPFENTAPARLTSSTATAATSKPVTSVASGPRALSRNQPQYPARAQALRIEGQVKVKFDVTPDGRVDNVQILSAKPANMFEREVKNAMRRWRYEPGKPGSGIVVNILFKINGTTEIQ", "total protein half-life in vivo", "h", 3.6),
]

List the reported total protein half-life in vivo of each sequence below.
1. MLIPWQDLSPETLENLIESFVLREGTDYGEHERTLEQKVADVKRQLQCGEAVLVWSELHETVNIMPRSQFRE
2. MKLISNDLRDGDKLPHRHVFNGMGYDGDNISPHLAWDDVPAGTKSFVVTCYDPDAPTGSGWWHWVVVNLPADTRVLPQGFGSGLVAMPDGVLQTRTDFGKTGYDGAAPPKGETHRYIFTVHALDIERIDVDEGASGAMVGFNVHFHSLASASITAMFS

3.93
6.07

====

assayProtocol: total protein half-life in vivo (active degradation + dilution); higher = more stable protein
testParameters: wild type E. coli NCM3722; growth: P-lim chemostat; doubling time 6 h
readoutLabel: total protein half-life in vivo

Using the record for `MEFFKKTALAALVMGFSGAALALPNITILATGGTIAGGGDSATKSNYTVGKVGVENLVNAVPQLKDIANVKGEQVVNIGSQDMNDNVWLTLAKKINTDCDKTDGFVITHGTDTMEETAYFLDLTVKCDKPVVMVGAMRPSTSMSADGPFNLYNAVVTAADKASANRGVLVVMNDTVLDGRDVTKTNTTDVATFKSVNYGPLGYIHNGKIDYQRTPARKHTSDTPFDVSKLNELPKVGIVYNYANASDLPAKALVDAGYDGIVSAGVGNGNLYKSVFDTLATAAKTGTAVVRSSRVPTGATTQDAEVDDAKYGFVASGTLNPQKARVLLQLALTQTKDPQQIQQIFNQY` , state its measured total protein half-life in vivo.
6.54 h

====

assayProtocol: total protein half-life in vivo (active degradation + dilution); higher = more stable protein
testParameters: E. coli NCM3722 delta-smpB; growth: N-lim chemostat; doubling time 6 h
Classification field: enter Criterion met for total protein half-life in vivo values not below 4 h, Criterion not met for values below it.

# sequenceRecord, classLabel
data = [
    ("MTHVCSVILIRRSFDIYHEQQKISLHNESILLLEKNLADDFAFCSPDTRRLDIDELTVCHYLQNIRQLPRNLGLHSKDRLLINQSPPMPLVTAIFDSFNESGVNSPILSNMLYLSCLSMFSHKKELIPLLFNSISTVSGKVERLISFDIAKRWYLRDIAERMYTSESLIKKKLQDENTCFSKILLASRMSMARRLLELRQIPLHTIAEKCGYSSTSYFINTFRQYYGVTPHQFAQHSPGTFS", "Criterion not met"),
    ("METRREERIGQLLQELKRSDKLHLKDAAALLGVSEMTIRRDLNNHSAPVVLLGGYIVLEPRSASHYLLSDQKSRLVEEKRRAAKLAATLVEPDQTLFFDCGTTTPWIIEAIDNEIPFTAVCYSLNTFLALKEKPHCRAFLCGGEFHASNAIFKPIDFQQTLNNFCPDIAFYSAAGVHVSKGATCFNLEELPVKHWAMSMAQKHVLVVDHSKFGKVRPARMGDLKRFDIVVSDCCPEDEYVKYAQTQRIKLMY [P0ACK5]", "Criterion met"),
    ("MMKNILAIQSHVVYGHAGNSAAEFPMRRLGANVWPLNTVQFSNHTQYGKWTGCVMPPSHLTEIVQGIAAIDKLHTCDAVLSGYLGSAEQGEHILGIVRQVKAANPQAKYFCDPVMGHPEKGCIVAPGVAEFHVRHGLPASDIIAPNLVELEILCEHAVNNVEEAVLAARELIAQGPQIVLVKHLARAGYSRDRFEMLLVTADEAWHISRPLVDFGMRQPVGVGDVTSGLLLVKLLQGATLQEALEHVTAAVYEIMVTTKAMQEYELQVVAAQDRIAKPEHYFSATKL", "Criterion not met"),
    ("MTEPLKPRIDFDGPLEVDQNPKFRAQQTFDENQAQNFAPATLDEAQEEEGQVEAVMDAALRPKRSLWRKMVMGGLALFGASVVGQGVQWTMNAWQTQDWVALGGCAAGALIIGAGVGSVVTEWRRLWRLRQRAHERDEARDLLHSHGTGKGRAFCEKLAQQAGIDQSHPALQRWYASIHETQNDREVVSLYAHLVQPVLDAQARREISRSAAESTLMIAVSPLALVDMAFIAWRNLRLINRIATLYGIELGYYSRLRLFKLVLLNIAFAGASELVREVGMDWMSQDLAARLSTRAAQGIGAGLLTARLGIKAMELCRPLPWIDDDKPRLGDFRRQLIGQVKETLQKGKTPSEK [P0A8R7]", "Criterion met"),
]

Attention now shifts to the item below.
Decide: total protein half-life in vivo of `MQEYTNHSDTTFALRNISFRVPGRTLLHPLSLTFPAGKVTGLIGHNGSGKSTLLKMLGRHQPPSEGEILLDAQPLESWSSKAFARKVAYLPQQLPPAEGMTVRELVAIGRYPWHGALGRFGAADREKVEEAISLVGLKPLAHRLVDSLSGGERQRAWIAMLVAQDSRCLLLDEPTSALDIAHQVDVLSLVHRLSQERGLTVIAVLHDINMAARYCDYLVALRGGEMIAQGTPAEIMRGETLEMIYGIPMGILPHPAGAAPVSFVY` >= 4 h?
Criterion met

====

assayProtocol: total protein half-life in vivo (active degradation + dilution); higher = more stable protein
testParameters: wild type E. coli NCM3722; growth: P-lim chemostat; doubling time 6 h
Consider the following sequences; for each one, report its total protein half-life in vivo.
Provide a numeric answer, followed by its unit.

// known answers, use as guide
# sequenceRecord, total protein half-life in vivo
records = [
    ("MMSTTLFKDFTFEAAHRLPHVPEGHKCGRLHGHSFMVRLEITGEVDPHTGWIIDFAELKAAFKPTYERLDHHYLNDIPGLENPTSEVLAKWIWDQVKPVVPLLSAVMVKETCTAGCIYRGE", "6.75 h"),
    ("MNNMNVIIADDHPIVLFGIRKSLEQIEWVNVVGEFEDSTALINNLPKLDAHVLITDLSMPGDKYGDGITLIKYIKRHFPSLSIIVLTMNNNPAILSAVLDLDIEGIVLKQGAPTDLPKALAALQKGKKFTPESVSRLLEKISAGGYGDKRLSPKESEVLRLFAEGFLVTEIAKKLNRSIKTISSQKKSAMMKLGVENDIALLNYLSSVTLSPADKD [P0DMC7]", "3.42 h"),
]

Could you now look at the following sequence, please?
Using the record for `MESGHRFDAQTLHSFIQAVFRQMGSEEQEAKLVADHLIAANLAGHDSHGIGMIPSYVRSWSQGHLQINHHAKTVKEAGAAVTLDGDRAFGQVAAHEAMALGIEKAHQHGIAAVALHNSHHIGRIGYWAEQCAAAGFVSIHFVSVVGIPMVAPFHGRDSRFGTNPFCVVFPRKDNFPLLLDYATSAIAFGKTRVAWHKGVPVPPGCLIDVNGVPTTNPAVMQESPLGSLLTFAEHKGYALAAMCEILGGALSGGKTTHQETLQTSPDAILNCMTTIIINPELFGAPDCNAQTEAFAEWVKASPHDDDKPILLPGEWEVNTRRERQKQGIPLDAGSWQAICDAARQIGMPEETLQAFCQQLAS` , state its measured total protein half-life in vivo.
5.58 h

====

assayProtocol: total protein half-life in vivo (active degradation + dilution); higher = more stable protein
testParameters: E. coli NCM3722 delta-clpP; growth: N-lim chemostat; doubling time 6 h
Consider the following sequences; for each one, report its total protein half-life in vivo.

// known answers, use as guide
# sequenceRecord, readoutLabel, assayResult
rows = [
    ("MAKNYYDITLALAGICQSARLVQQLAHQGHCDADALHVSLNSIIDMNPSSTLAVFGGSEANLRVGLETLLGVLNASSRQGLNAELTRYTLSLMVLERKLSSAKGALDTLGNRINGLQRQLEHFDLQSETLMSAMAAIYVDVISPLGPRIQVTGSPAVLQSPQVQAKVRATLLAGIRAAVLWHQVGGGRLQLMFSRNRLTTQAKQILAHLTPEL", "total protein half-life in vivo", "5.78 h"),
    ("MKRAPLITGLLLISTSCAYASSGGCGADSTSGATNYSSVVDDVTVNQTDNVTGREFTSATLSSTNWQYACSCSAGKAVKLVYMVSPVLTTTGHQTGYYKLNDSLDIKTTLQANDIPGLTTDQVVSVNTRFTQIKNNTVYSAATQTGVCQGDTSRYGPVNIGANTTFTLYVTKPFLGSMTIPKTDIAVIKGAWVDGMGSPSTGDFHDLVKLSIQGNLTAPQSCKINQGDVIKVNFGFINGQKFTTRNAMPDGFTPVDFDITYDCGDTSKIKNSLQMRIDGTTGVVDQYNLVARRRSSDNVPDVGIRIENLGGGVANIPFQNGILPVDPSGHGTVNMRAWPVNLVGGELETGKFQGTATITVIVR", "total protein half-life in vivo", "5.21 h"),
    ("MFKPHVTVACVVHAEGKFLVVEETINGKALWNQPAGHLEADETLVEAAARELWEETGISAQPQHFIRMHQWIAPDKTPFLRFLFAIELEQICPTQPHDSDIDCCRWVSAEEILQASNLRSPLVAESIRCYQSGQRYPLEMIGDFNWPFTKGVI [P0AEI6]", "total protein half-life in vivo", "4.42 h"),
    ("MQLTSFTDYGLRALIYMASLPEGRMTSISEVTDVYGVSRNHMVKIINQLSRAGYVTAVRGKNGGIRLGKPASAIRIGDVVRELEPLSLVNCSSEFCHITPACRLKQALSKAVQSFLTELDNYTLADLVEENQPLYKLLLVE [P0AF63]", "total protein half-life in vivo", "6.69 h"),
    ("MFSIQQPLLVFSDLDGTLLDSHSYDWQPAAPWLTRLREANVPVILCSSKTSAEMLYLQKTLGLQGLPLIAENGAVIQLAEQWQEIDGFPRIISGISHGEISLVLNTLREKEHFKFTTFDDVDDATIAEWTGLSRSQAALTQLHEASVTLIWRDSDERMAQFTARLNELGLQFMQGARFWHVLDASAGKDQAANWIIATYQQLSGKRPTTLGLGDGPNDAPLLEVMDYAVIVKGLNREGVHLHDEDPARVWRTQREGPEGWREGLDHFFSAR", "total protein half-life in vivo", "4.08 h"),
    ("MTVKQTVEITNKLGMHARPAMKLFELMQGFDAEVLLRNDEGTEAEANSVIALLMLDSAKGRQIEVEATGPQEEEALAAVIALFNSGFDED [P0A9N0]", "total protein half-life in vivo", "2.96 h"),
]

Could you now look at the following sequence, please?
Using the record for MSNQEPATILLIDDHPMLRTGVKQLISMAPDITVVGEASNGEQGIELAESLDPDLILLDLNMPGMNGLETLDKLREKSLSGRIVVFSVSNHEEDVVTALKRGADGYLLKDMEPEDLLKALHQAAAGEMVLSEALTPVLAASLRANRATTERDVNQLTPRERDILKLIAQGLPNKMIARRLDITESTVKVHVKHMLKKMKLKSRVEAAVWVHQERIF [P0AF28] , state its measured total protein half-life in vivo.
5.77 h
